Test system: DLD-1
experimentalDetails: NCI tumour cell line growth inhibition, 48 h
Calls of active or inactive are those of the source. Rule as the data show it: active = GI50 up to about 1.1 µM and inactive = higher.
Items are presented alongside their recorded GI50.

compound	GI50
O=c1c2ccccc2nc(-c2ccccc2)n1NC(=S)Nc1cccc(Cl)c1	> 100 µM (inactive)
CS(=O)(=O)NNS(=O)(=O)c1ccc(Cl)cc1	> 100 µM (inactive)
CN1C/C(=C\c2ccc(C(=O)O)cc2)C(=O)/C(=C/c2ccc(C(=O)O)cc2)C1	> 100 µM (inactive)
CCCCCCCSCC1OC(n2cnc3c(N)ncnc32)C(O)C1O (stereo unspecified)	7.64 µM (inactive)
CC(=O)C(CN(C)C)C(c1ccccc1)c1c(O)c2ccccc2oc1=O (stereo unspecified)	> 100 µM (inactive)
CC12CCc3ccccc3C1=NNC(=O)C2 (stereo unspecified)	> 100 µM (inactive)

Origin of the recorded values: ChEMBL document CHEMBL1201862
